Source listed as patent US5162328A.

# testName: Pharmacokinetics in dogs (plasma concentration by HPLC)
# Assay type: in vivo, dog (beagle)
# recordedConditions: dog, plasma, po, 2 mg/kg/day, Dog 1, day 5; 2 mg/kg/day PO
observationType: Tmax (h)
Numbers only, in h.

# annotated cases, reported Tmax shown
| compound | observationType | measured |
| --- | --- | --- |
| Cc1cc(Nc2nccc(-c3ccncc3)n2)ccc1N.Cl.Cl [Compound 2, reference compound] | Tmax | 1 |
| c1cc(Nc2nccc(-c3cccs3)n2)cc(OCCn2ccnc2)c1 | Tmax | 1 |

Field: next compound
[Q] Give the value of Tmax reported for the following: CCN(CC)CCOc1ccc(Nc2nccc(-c3ccncc3)n2)cc1.Cl.Cl [Compound 3, reference compound]
[A] 1
